- test-system: human recombinant vasopressin V1a receptor (Homo sapiens)
- Construct: gene AVPR1A; full-length recombinant receptor in 1321N1 host cells (PerkinElmer)
- Sequence (P37288 whole entry): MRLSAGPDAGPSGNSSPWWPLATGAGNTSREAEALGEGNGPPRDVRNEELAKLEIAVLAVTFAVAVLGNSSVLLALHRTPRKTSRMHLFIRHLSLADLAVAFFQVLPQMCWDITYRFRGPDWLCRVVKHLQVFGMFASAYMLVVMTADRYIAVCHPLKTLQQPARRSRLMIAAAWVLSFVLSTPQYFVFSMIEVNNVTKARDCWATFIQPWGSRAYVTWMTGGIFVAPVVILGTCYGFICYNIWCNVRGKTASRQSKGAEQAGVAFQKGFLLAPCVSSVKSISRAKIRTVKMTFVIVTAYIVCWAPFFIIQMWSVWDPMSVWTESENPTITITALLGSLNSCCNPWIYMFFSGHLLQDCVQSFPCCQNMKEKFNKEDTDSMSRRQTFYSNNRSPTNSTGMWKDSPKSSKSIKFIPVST
- assay-name: radioligand binding assay
- Format: cell-based
- measurement-context: read-out: Bingding Assy (IC50; nmol/mL) / V1a
recorded-metric: IC50 (nmol/mL)
Give bare numbers, in nmol/mL.

[[record]]
compound = "O=C(Nc1ccc(C(=O)N2CCC(=C3c4ccc(Cl)cc4CCc4cccnc43)CC2)cc1)c1cccc(Cl)c1 [1l]"
recorded_metric = "IC50"
value_reported = 560

[[record]]
compound = "O=C(Nc1cccc(S(=O)(=O)N2CCC(=C3c4ccc(Cl)cc4CCc4cccnc43)CC2)c1)c1cccc(Cl)c1 [1u]"
recorded_metric = "IC50"
value_reported = 840

[[record]]
compound = "O=C(c1ccc(NS(=O)(=O)c2cc(Cl)ccc2Cl)cc1)N1CCC(=C2c3ccc(Cl)cc3CCc3cccnc32)CC1 [1s]"
recorded_metric = "IC50"
value_reported = 320

[[record]]
compound = "O=C(Nc1ccc(C(=O)N2CCC(=C3c4ccc(Cl)cc4CCc4cccnc43)CC2)cc1)c1ccccc1Cl [1k]"
recorded_metric = "IC50"
value_reported = 490


Query compound follows.
Inquiry: Fill in reported IC50 for this entry: Cc1ccccc1C(=O)Nc1ccc(C(=O)N2CCC(=C3c4ccc(Cl)cc4CCc4cccnc43)CC2)cc1 [1h]
Reply text: 210
